tested on: rodent lifetime carcinogenesis bioassay, tumor incidence TD50; experiment: carcinogenic potency in animals, long-term in vivo studies, CPDB compilation (AID 1745844); settings: rat; strain Fischer 344; males; inhaled; site: thyroid gland; lesion: c-cell adenoma + c-cell carcinoma; dosed 105 weeks; study length 105 weeks
Activity calls are given as the source filed them. How the calls were made is not given here.
Property Measured: TD50

Challenge: Given `O=[O+][O-]` , state its recorded TD50.
Response given: 0.0156 mg/kg/day (inactive)

---

tested on: rodent lifetime carcinogenesis bioassay, tumor incidence TD50; assay: carcinogenic potency in animals, long-term in vivo studies, CPDB compilation (AID 1745844); conditions: rat; strain F344/DuCrj; females; in feed; site: liver; lesion: several types; types named in the paper; dosed 67 weeks; study length 67 weeks
Property Measured: TD50

Challenge: Given `Cc1cccn2c1nc1ccc(N)nc12` , state its recorded TD50.
Response given: 8.39 mg/kg/day

All values here come from PubChem BioAssay AID1745844.
